# MEASUREMENT_NOTES: protein stability index of a GFP-peptide fusion (GPS, HEK-293T) (PSI 1-6); higher = more stable;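 further: 24-mer peptide tiles fused after GFP, lentivirally expressed, FACS-sorted into six equal bins by GFP/DsRed ratio, decoded by Illumina sequencing, PSI is the read-weighted mean bin number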
# TEST_SETTINGS: treatment: MLN4924 1 uM, 8 h; c terminus: a fixed tail appended
Entries are grouped by protein stability index into these classes: lower level: < 3; middle level: ≥ 3 and < 4; upper level: ≥ 4

State the class of the sequence shown: CTLETTVHASGWNKILVPLVLLRQ [BCL2L13] lower level

Please classify: IPAGARDIQIVERKKSADVLALAD [ADAMTSL2] upper level

Please let me know in which category the item SFVVLLYILDNETNFVVQVSVFIG [CLPTM1] belongs. middle level

Category lookup for the sequence QVKSRQNKTNKNSVSSCDQEHQSA [SMOC2] upper level

Which protein stability index category applies to TIRGEVMFFKDRFYMRTNPFYPEV [MMP1] here? lower level

Into which bin does this sequence go? SIESIKWMIEEKATITSRGSSLSG [LURAP1L] middle level

Which class holds PHSDQRLRPQRTKQYVLLSILLCL [TMEM106C] ? lower level

For LDMSQNVSLVTAELSKDAQASAAP [SLC29A1] , which protein stability index bin applies? upper level

Into which bin does this sequence go? NLDEEMKKIRQVIRKYNYVAMDTE [CNOT7] middle level

Each sequence maps to one class by protein stability index. Which class for TMPLYLEDDIRPDIKDDIYDPTYK [SCD] ? upper level

Exam item: assign EMSRGEQDLIEDLKLARKAYHDPM [NET1] to the correct category. upper level

Note: place this sequence into its band. Item: QFAISRELIRNIYNSFHKLRDRAE [SNX8] lower level

Hey, which category is KKFRTKSRTWAGEKSKREMYSRLK [CDC25A] in, do you know? middle level

Where do the numbers come from? From the supplement of paper PMC10567573.
